- SYSTEM: beta-catenin-B-cell lymphoma 9 protein complex (Homo sapiens, UniProt P35222)
- Sequence (P35222 whole entry): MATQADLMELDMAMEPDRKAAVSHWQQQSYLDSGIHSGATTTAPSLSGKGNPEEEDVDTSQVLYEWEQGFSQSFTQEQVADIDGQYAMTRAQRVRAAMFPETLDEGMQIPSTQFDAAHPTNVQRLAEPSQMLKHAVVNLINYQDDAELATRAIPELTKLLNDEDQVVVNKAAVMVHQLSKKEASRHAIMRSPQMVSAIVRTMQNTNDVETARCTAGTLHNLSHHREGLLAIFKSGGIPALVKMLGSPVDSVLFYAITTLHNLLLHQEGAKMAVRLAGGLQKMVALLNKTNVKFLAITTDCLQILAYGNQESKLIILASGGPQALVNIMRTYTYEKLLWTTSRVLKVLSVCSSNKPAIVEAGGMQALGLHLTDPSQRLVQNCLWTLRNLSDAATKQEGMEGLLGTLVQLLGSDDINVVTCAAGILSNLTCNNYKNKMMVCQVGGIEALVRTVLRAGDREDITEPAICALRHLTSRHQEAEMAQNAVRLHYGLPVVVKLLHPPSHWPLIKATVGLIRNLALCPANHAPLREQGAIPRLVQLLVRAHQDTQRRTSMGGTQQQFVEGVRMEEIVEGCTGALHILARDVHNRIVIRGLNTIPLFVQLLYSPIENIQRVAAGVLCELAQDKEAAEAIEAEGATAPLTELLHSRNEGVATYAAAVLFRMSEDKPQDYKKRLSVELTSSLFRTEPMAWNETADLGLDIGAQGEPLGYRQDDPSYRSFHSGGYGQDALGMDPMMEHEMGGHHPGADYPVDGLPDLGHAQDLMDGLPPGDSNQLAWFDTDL
- Sequence (O00512 whole entry): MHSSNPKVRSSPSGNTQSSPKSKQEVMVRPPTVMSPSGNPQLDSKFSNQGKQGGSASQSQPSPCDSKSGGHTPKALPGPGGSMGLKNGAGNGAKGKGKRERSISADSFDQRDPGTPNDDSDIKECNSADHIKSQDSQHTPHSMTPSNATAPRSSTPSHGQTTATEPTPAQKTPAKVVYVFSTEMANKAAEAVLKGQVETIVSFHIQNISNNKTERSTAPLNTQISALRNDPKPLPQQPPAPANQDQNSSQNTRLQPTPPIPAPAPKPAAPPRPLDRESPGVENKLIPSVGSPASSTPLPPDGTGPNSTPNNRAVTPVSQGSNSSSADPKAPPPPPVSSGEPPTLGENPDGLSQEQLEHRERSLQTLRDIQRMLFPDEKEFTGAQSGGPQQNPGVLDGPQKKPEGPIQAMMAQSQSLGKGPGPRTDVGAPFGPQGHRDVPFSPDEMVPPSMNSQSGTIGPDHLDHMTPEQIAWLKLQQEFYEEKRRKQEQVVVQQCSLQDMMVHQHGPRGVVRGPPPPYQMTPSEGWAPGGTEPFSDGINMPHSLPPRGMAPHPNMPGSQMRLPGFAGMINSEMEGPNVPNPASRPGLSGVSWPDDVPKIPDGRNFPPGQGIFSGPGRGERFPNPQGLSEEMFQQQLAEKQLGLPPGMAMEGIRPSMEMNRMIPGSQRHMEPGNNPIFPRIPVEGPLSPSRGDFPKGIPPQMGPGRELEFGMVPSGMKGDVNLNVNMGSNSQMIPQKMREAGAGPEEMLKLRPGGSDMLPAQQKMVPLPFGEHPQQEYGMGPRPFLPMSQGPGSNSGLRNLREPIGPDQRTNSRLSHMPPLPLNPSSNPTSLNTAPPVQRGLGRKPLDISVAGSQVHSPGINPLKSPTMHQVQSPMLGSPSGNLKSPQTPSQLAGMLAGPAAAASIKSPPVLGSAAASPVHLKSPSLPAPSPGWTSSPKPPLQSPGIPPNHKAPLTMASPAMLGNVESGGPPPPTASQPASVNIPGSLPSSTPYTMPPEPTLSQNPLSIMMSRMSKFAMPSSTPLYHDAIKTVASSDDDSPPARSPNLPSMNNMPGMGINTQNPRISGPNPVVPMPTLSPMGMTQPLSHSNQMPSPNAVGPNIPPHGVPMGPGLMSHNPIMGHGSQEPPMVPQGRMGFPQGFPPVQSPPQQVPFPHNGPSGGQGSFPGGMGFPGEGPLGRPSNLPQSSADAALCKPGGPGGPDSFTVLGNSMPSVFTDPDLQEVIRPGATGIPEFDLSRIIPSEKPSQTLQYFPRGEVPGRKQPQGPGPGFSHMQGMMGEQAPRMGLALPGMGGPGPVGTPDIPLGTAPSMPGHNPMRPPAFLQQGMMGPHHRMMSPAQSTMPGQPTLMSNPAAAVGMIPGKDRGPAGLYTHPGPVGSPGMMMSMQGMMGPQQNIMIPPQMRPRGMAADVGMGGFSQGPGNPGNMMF
- METHOD_DESCRIPTION: Inhibition of protein interaction between beta-catenin (unknown origin)/BCL9 in HEK293 cells transfected with beta-catenin assessed as reduction in Wnt/beta-catenin transactivation incubated for 24 hrs by Wnt-responsive TOP-Flash luciferase reporter assay
- Assay type: cell-based
PROPERTY_NAME: IC50 (µM)

Worked examples, 5 compounds total:
INSERT INTO assay_data (compound, system, property_name, unit_descriptor, readout_number) VALUES
  ('Cl.Cl.O=C(Nc1ccc(O[C@H]2CCNC2)c(-c2ccc(F)cc2)c1)c1ccc(O[C@H]2CCNC2)c(-c2ccc3ccsc3c2)c1', 'beta-catenin-B-cell lymphoma 9 protein complex (Homo sapiens, UniProt P35222)', 'IC50', 'µM', 6.2),
  ('Cl.Cl.O=C(Nc1ccc(O[C@H]2CCNC2)c(-c2ccc(F)cc2)c1)c1ccc(O[C@H]2CCNC2)c(C2CCC(C(F)(F)F)CC2)c1 (stereo partly drawn)', 'beta-catenin-B-cell lymphoma 9 protein complex (Homo sapiens, UniProt P35222)', 'IC50', 'µM', 10),
  ('Cl.Cl.Fc1ccc(-c2cc(-c3ccc4cc(O[C@H]5CCNC5)c(-c5ccc(F)c(F)c5)cc4n3)ccc2O[C@H]2CCNC2)cc1', 'beta-catenin-B-cell lymphoma 9 protein complex (Homo sapiens, UniProt P35222)', 'IC50', 'µM', 26),
  ('Cl.Cl.O=C(Nc1cnc(O[C@H]2CCNC2)c(-c2ccc(F)cc2)c1)c1ccc(O[C@H]2CCNC2)c(-c2ccc(F)c(F)c2)c1', 'beta-catenin-B-cell lymphoma 9 protein complex (Homo sapiens, UniProt P35222)', 'IC50', 'µM', 10),
  ('Cl.Cl.O=C(Nc1ccc(O[C@H]2CCNC2)c(-c2ccc(F)cc2)c1)c1ccc(O[C@H]2CCNC2)c(-c2ccc3cc(F)ccc3c2)c1', 'beta-catenin-B-cell lymphoma 9 protein complex (Homo sapiens, UniProt P35222)', 'IC50', 'µM', 10);

P = Fc1ccc(-c2cc(-c3cnc4cc(O[C@H]5CCNC5)c(-c5ccc(F)c(F)c5)cc4c3)ccc2O[C@H]2CCNC2)cc1
Q = Cl.Cl.O=C(Nc1ccc(O[C@H]2CCNC2)c(-c2ccc(F)cc2)c1)c1cnc(O[C@H]2CCNC2)c(-c2ccc(F)c(F)c2)c1
R = Cl.Cl.O=C(Nc1ccc(O[C@@H]2CCNC2)c(-c2cccc(-c3nn[nH]n3)c2)c1)c1ccc(O[C@H]2CCNC2)c(-c2ccc3ccsc3c2)c1
Query: Ascending by IC50, please: list the compounds accordingly. Provide your answer as the labels ordered per the instruction.
Response: P, Q, R
(P: 14 µM, Q: 22 µM, R: 50 µM)

----------
- SYSTEM: beta-catenin-B-cell lymphoma 9 protein complex (Homo sapiens)
- METHOD_DESCRIPTION: Inhibition of protein interaction between C-terminal 6x-histidine tagged full-length beta-catenin (1 to 781 residues) (unknown origin)/N-terminal biotinylated human BCL9 ( 350 to 375 residues) incubated for 1 hr by Alpha-screen competitive inhibition assay
- Type: protein-complex assay
pKi: −log10 of the molar value.
PROPERTY_NAME: pKi

INSERT INTO measurements (chemical_structure, system, property_name, readout_number) VALUES
  ('Cl.Cl.O=C(O)c1ccc(F)c(-c2cc(NC(=O)c3ccc(O[C@H]4CCNC4)c(-c4ccc(F)c(F)c4)c3)ccc2O[C@H]2CCNC2)c1', 'beta-catenin-B-cell lymphoma 9 protein complex (Homo sapiens)', 'pKi', 4.92),
  ('Cl.Cl.NC(=O)c1cccc(-c2cc(NC(=O)c3ccc(O[C@H]4CCNC4)c(-c4ccc(F)c(F)c4)c3)ccc2O[C@H]2CCNC2)c1', 'beta-catenin-B-cell lymphoma 9 protein complex (Homo sapiens)', 'pKi', 5.25),
  ('Cl.Cl.O=C(Nc1ccc(O[C@H]2CCNC2)c(-c2ccc(F)cc2)c1)c1ccc(O[C@H]2CCNC2)c(-c2ccc(F)c(F)c2)c1', 'beta-catenin-B-cell lymphoma 9 protein complex (Homo sapiens)', 'pKi', 5.68),
  ('Cl.Cl.O=C(O)c1cccc(-c2cc(NC(=O)c3ccc(O[C@H]4CCNC4)c(-c4ccc(F)c(F)c4)c3)ccc2O[C@H]2CCNC2)c1', 'beta-catenin-B-cell lymphoma 9 protein complex (Homo sapiens)', 'pKi', 5.27),
  ('Cl.Cl.O=C(Nc1ccc(O[C@H]2CCNC2)c(-c2ccc(F)cc2)c1)c1ccc(O[C@H]2CCNC2)c(C2=CCCCC2)c1', 'beta-catenin-B-cell lymphoma 9 protein complex (Homo sapiens)', 'pKi', 5.15);

A = Cl.Cl.O=C(Nc1cnc(O[C@H]2CCNC2)c(-c2ccc(F)cc2)c1)c1cnc(O[C@H]2CCNC2)c(-c2ccc(F)c(F)c2)c1
B = Fc1ccc(-c2cc(-c3cnc4cc(O[C@H]5CCNC5)c(-c5ccc(F)c(F)c5)cc4c3)ccc2O[C@H]2CCNC2)cc1
C = Cl.Cl.O=C(Nc1ccc(O[C@H]2CCNC2)c(-c2ccc(F)cc2)c1)c1ccc(O[C@H]2CCNC2)c(-c2ccc(F)nc2)c1
D = Cl.Cl.N#Cc1ccc(-c2cc(NC(=O)c3ccc(O[C@H]4CCNC4)c(-c4ccc(F)c(F)c4)c3)ccc2O[C@H]2CCNC2)cc1
E = Cl.Cl.O=C(Nc1ccc(O[C@H]2CCNC2)c(-c2ccc(F)cc2)c1)c1ccc(O[C@H]2CCNC2)c(-c2ccc3cc(F)ccc3c2)c1
Query: Arrange the 5 compounds from largest to smallest pKi. Provide your answer as the labels ordered per the instruction.
Response: E, B, D, A, C
(E: 5.89, B: 5.66, D: 5.42, A: 5.14, C: 4.72)
